Assay: chemical genetic growth profiling, strain panel (AID 1159580);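 further: tested at 20 µM; growth read once vehicle control cultures reached saturation at 30 °C; 1 = growth at the plate median or of vehicle wells; lower values mean less growth of the strain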
Conditions: S. cerevisiae deletion strains, growth OD, locus YAR019C, strain CDC15
Hit rate of the full screen: of about 5,500 compounds, about 2,000 (36%) were called active. Roughly 18% stayed inconclusive and do not appear here. No stated cut-off is given here; in the data, active means normalized growth mostly below about 0.91 (no sharp cut-off); inconclusive means no clear call, values can overlap the other calls; inactive means mostly above about 0.92. Some of the results follow.
Outcomes you can answer with include only these: yes (1) = active, no (0) = inactive

Would you please look over these solved cases?
Cc1ccc(N2C(=O)CSC2c2ccc(Cl)c(Cl)c2)cc1Cl (stereo unspecified) ... no (0)
O=C1/C(=C/c2ccc(C(F)(F)F)cc2)COc2ccccc21 ... no (0)
O=C1CSC(c2ccc(C(F)(F)F)cc2)N1c1ccc(C(F)(F)F)cc1 (stereo unspecified) ... no (0)

What outcome does the record of this test show for COc1ccc(C(=O)NCc2csc3ccc(Cl)cc23)cc1OC ?
no (0)

What outcome does the record of this test show for Oc1ccc(N=Nc2ccccn2)c(O)c1 ?
yes (1)

What outcome does the record of this test show for NNC(=O)c1csc(Cc2c(Cl)sc3ccc(Cl)cc23)n1 ?
no (0)

----------
Assay: chemical genetic growth profiling, strain panel (AID 1159580)
Conditions: S. cerevisiae deletion strains, growth OD, locus YLR342W, strain FKS1, active compounds read low
Hit rate of the full screen: of about 5,500 compounds, about 2,000 (36%) were called active. About 18% were inconclusive and are not listed. The list shows a part of the results.
normalized growth for assorted molecules
Give your answer as a number; write no unit.

Worked examples, 5 molecules total:
COc1cc([C@H]2Oc3cc([C@H]4Oc5cc(O)cc(O)c5C(=O)[C@@H]4O)ccc3O[C@@H]2CO)ccc1O ... 1.01
c1ccc2nc(N3CCNCC3)ccc2c1 ... 1.02
CN1CCN(C2=Nc3ccccc3Oc3ccc(Cl)cc32)CC1 ... 0.994
Cc1ncc([N+](=O)[O-])n1CC(C)O (stereo unspecified) ... 0.987
C[C@@H]1CC2C3CCC4=CC(=O)C=C[C@]4(C)[C@@]3(F)[C@@H](O)C[C@]2(C)[C@H]1C(=O)CO (stereo partly specified) ... 1

Here's the next entry for you.
Quick one: normalized growth for C[C@@H]1CC2C3C[C@H](F)C4=CC(=O)C=C[C@]4(C)[C@@]3(F)[C@@H](O)C[C@]2(C)[C@@]1(O)C(=O)COC(=O)C(C)(C)C (stereo partly specified) ?
0.978

----------
Experiment: chemical genetic growth profiling, strain panel (AID 1159580)
Details: S. cerevisiae deletion strains, growth OD, locus YDL134C, strain PPH21
Screen size: about 5,500 compounds; about 2,000 (36%) were called active. Roughly 18% stayed inconclusive and do not appear here. No stated cut-off is given here; in the data, active means normalized growth mostly below about 0.91 (no sharp cut-off); inconclusive means no clear call, values can overlap the other calls; inactive means mostly above about 0.92. The list shows a part of the results.
Outcomes you can answer with include only these: True for active, False for inactive

Would you please look over these solved cases?
COc1ccc(OCC(N)=O)cc1 ... False
Cc1ccc(S(=O)(=O)Nc2ccc(C)c([N+](=O)[O-])c2)cc1 ... False
COc1ccc2c(c1)CCCN2C(=O)NC(=O)c1c(F)cccc1Cl ... False
CC(=O)c1ccc(-c2ccc(Cl)c(Cl)c2)o1 ... True
Cn1nccc1NS(=O)(=O)c1cccc(Cl)c1 ... False

What outcome does the record of this test show for NC(N)=NCCC[C@@H](NC(=O)[C@@H](N)Cc1ccc(O)cc1)C(=O)O ?
False

What outcome does the record of this test show for Clc1ccc2c(c1)C(N1CCNCC1)=Nc1ccccc1O2 ?
False

What outcome does the record of this test show for COc1ccc(C=Nc2ccc(O)cc2)cc1 ?
False

What outcome does the record of this test show for COc1ccc(N=Cc2ccccc2O)cc1 ?
False

What outcome does the record of this test show for Cc1cc(O)c(C)c2c1C(=O)Oc1c(C)c(O)c(C(=O)O)c(C)c1O2 ?
False

What outcome does the record of this test show for Cc1cc(=O)oc2c(O)c(O)ccc12 ?
False

What outcome does the record of this test show for C[C@@H]1CC2C3C[C@H](F)C4=CC(=O)C=C[C@]4(C)[C@@]3(F)[C@@H](O)C[C@]2(C)[C@@]1(O)C(=O)COC(=O)C(C)(C)C (stereo not given in full) ?
False

What outcome does the record of this test show for NC(N)=O ?
False

----------
Experiment: chemical genetic growth profiling, strain panel (AID 1159580);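 further: tested at 20 µM; growth read once vehicle control cultures reached saturation at 30 °C; 1 = growth at the plate median or of vehicle wells; lower values mean less growth of the strain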
Settings: S. cerevisiae deletion strains, growth OD, locus YML032C, strain rad52, active compounds read low
Among all 5,500 compounds or so, about 2,000 (36%) were called active. Another 18% or so got no clear call; they are omitted. Some of the results follow.
Friendly reminder: normalized growth below 1 is fulfilled, at or above is not fulfilled.

Would you please look over these solved cases?
CC1CCC2(OC1)OC1CC3C4CCC5C[C@@H](O)CCC5(C)C4=CCC3(C)C1[C@@H]2C (some centres undefined) ... fulfilled
CN(C)CCOC(=O)COc1ccc(Cl)cc1 ... not fulfilled
N[C@@H](Cc1cc(I)c(Oc2cc(I)c(O)c(I)c2)c(I)c1)C(=O)O ... not fulfilled
O=c1cc(-c2ccccc2)oc2cc(O)c(O)c(O)c12 ... fulfilled
COc1c2ccccc2nc2occc12 ... fulfilled
Nc1ccncc1 ... fulfilled

is_below(normalized growth, 1) for COC(=O)c1c(C)cc(OC(=O)c2c(C)cc(O)c(C=O)c2O)c(C)c1O ?
fulfilled

is_below(normalized growth, 1) for C=C1C(C2(C)C=CC(=O)C(C)(C)C2CC(=O)OC)CC[C@@]2(C)[C@H](c3ccoc3)OC(=O)C3OC132 (some centres undefined) ?
fulfilled

is_below(normalized growth, 1) for C=C1C2CC[C@@]3(C)[C@H](c4ccoc4)OC(=O)C[C@]13O[C@H]1CC(O)C(C)(C)C(CC(=O)OC)[C@@]21C (some centres undefined) ?
not fulfilled

----------
Experiment: chemical genetic growth profiling, strain panel (AID 1159580);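 further: tested at 20 µM; growth read once vehicle control cultures reached saturation at 30 °C; 1 = growth at the plate median or of vehicle wells; lower values mean less growth of the strain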
Conditions: S. cerevisiae deletion strains, growth OD, locus YDR150W, strain NUM1
In all, about 5,500 compounds went through this assay and about 2,000 (36%) were called active. Another 18% or so got no clear call; they are omitted. Rule as the data show it: active = normalized growth mostly below about 0.91 (no sharp cut-off); inconclusive = no clear call, values can overlap the other calls; inactive = mostly above about 0.92. This is one part of the list.
Outcomes you can answer with include only these: 1.0 (active), 0.0 (inactive)

CCS(=O)(=O)Nc1cccc(C(=C2CCCCC2)c2cnc[nH]2)c1 ... 0.0
COc1cc(OC)c(OC)cc1C=O ... 0.0
COc1cc([C@H]2Oc3cc([C@H]4Oc5cc(O)cc(O)c5C(=O)[C@@H]4O)ccc3O[C@@H]2CO)ccc1O ... 0.0

What outcome does the record of this test show for C=C[C@H]1CN2CC[C@H]1C[C@@H]2[C@H](O)c1ccnc2ccccc12 ?
0.0

What outcome does the record of this test show for CN(C)CCOC(=O)COc1ccc(Cl)cc1 ?
0.0

What outcome does the record of this test show for Clc1ccc(OCCOc2ccc(Cl)cc2)cc1 ?
0.0

What outcome does the record of this test show for C[C@@H]1CC2C3C[C@H](F)C4=CC(=O)C=C[C@]4(C)[C@@]3(F)[C@@H](O)C[C@]2(C)[C@@]1(O)C(=O)COC(=O)C(C)(C)C (some centres undefined) ?
0.0

What outcome does the record of this test show for COC(=O)CCCOc1ccc(Cl)cc1Cl ?
0.0

What outcome does the record of this test show for C[C@]12N[C@H](Cc3ccccc31)c1ccccc12 ?
0.0

What outcome does the record of this test show for CCCC(C(=O)OCCN(CC)CC)(c1ccccc1)c1ccccc1 ?
0.0

What outcome does the record of this test show for Cc1cc(O)c(C)c2c1C(=O)Oc1c(C)c(O)c(C(=O)O)c(C)c1O2 ?
0.0

What outcome does the record of this test show for COC(=O)COc1ccc(C(C)=O)cc1 ?
0.0

What outcome does the record of this test show for O=C(CSc1nnc(NC(=O)c2cccc([N+](=O)[O-])c2)s1)Nc1ccc2c(c1)OCO2 ?
0.0

What outcome does the record of this test show for Cc1ccc2cc(NC(=O)c3ccco3)ccc2n1 ?
0.0

What outcome does the record of this test show for CC(=O)Nc1ccc(S(=O)(=O)NC2Cc3ccccc3C2)cc1 ?
0.0

----------
Assay: chemical genetic growth profiling, strain panel (AID 1159580);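 further: tested at 20 µM; growth read once vehicle control cultures reached saturation at 30 °C; 1 = growth at the plate median or of vehicle wells; lower values mean less growth of the strain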
Settings: S. cerevisiae deletion strains, growth OD, locus YJR075W, strain HOC1
The whole screen tested about 5,500 compounds, of which about 2,000 (36%) were called active. Roughly 18% stayed inconclusive and do not appear here. Rule as the data show it: active = normalized growth mostly below about 0.91 (no sharp cut-off); inconclusive = no clear call, values can overlap the other calls; inactive = mostly above about 0.92. The list shows a part of the results.
Outcomes you can answer with include only these: active, inactive

Would you please look over these solved cases?
CN1CCN(c2ccc3ccccc3n2)CC1 ... inactive
COc1cc(CC/C(C)=N/O)ccc1OCc1ccc(Cl)cc1Cl ... active
OC1(c2ccc(Cl)cc2)CSc2nc3cc(C(F)(F)F)ccc3n21 (stereo unspecified) ... inactive
COC(=O)c1c(C)cc(OC(=O)c2c(C)c(Cl)c(O)c(C=O)c2O)c(C)c1O ... inactive
COc1ccc(CCN(C)CCc2ccc(OC)c(OC)c2)cc1OC ... inactive

Now consider a different molecule.
What outcome does the record of this test show for Cc1cc(C)cc(OCC2CNC(=O)O2)c1 (stereo unspecified) ?
inactive
